System: NCI-H226 lung
Assay: NCI tumour cell line growth inhibition, 48 h
MEASURED_QUANTITY: TGI (µM)
Could you give me the number in µM? Just the number is fine.

Recorded results for 3 compounds are shown here.
* CNC(=S)N=Nc1c(O)n(CN2CCOCC2)c2ccc([N+](=O)[O-])cc12 | 36.3
* Cc1cccc(C)c1NC(=O)C(=O)C(C(=O)c1ccccc1-c1ccccc1)C1OC(=O)c2ccccc21 (stereo unspecified) | 30.3
* CCCCCCCCCCCCC/C=C/[C@@H](O)[C@H](COC1OC(CO)C(OC2OC(CO)C(O)C(OC3(C(=O)O)CC(O)C(NC(C)=O)C(C(O)C(O)CO)O3)C2O)C(O)C1O)N=[N+]=[N-] (stereo partly specified) | 45.9

The recorded TGI for entry O=C(Nc1ccc(F)cc1)c1cc(S(=O)(=O)Nc2nc3ccccc3o2)c(SCc2ccccc2)cc1Cl equals 28.4

The recorded TGI for entry O=C(CSC1CCc2ccccc21)N/N=C/c1ccccc1O (stereo unspecified) equals 35.8

###

Tested on: A549 NSCLC
Assay: NCI tumour cell line growth inhibition, 48 h
MEASURED_QUANTITY: TGI

Recorded results for 4 compounds are shown here.
• O=[N+]([O-])c1ccc(N2N=C(c3ccc(NCc4nc5ccccc5[nH]4)cc3)CC2c2ccco2)cc1 (stereo not given) = > 100 µM
• CCN1CCC(O)(/C=C/c2ccc(C)cc2)C(C(=O)/C=C/c2ccc(C)cc2)C1 (stereo not given) = 21.4 µM
• CCC(C)C1NC(=O)C(NC(=O)c2c3[nH]c4c(C(=O)NC5C(=O)NC(C(C)CC)C(=O)N6CCCC6C(=O)N(C)CC(=O)N(C)C(C(C)C)C(=O)OC5C)ccc(C)c4oc-3c(C)c(=O)c2=O)C(C)OC(=O)C(C(C)C)N(C)C(=O)CN(C)C(=O)C2CCCN2C1=O (stereo not given) = > 100 µM
• C1=C\COCc2cc(ccc2OCCN2CCCC2)Nc2nccc(n2)-c2cccc(c2)COC/1 = 5.72 µM

// switching to the query compound
The recorded TGI for entry O=C(CSC1CCc2ccccc21)N/N=C/c1ccccc1O (stereo not given) equals > 100 µM

###

Tested on: SK-MEL-28 melanoma
Test: NCI tumour cell line growth inhibition, 48 h
compounds and their reported TGI

Recorded results for 10 compounds are shown here.
- CSc1ccc2c(c1)C(=O)c1c-2n(CCCBr)c(=O)c2cc([N+](=O)[O-])ccc12: > 100 µM
- CCOC(=O)C1(C/C=C/CBr)CCc2ccccc2C1=O (stereo unspecified): 35.6 µM
- O=C(CSC1CCc2ccccc21)N/N=C/c1ccccc1O (stereo unspecified): > 100 µM
- CN(CCO)c1ccc(N2Cc3ccccc3OC3=C2C(=O)c2c(O)ccc(O)c2C3=O)cn1: 0.611 µM
- COc1cc(C(=O)N2CCN(c3ncccn3)CC2)c(N)cc1OCc1ccccc1: > 100 µM
- CC(C)C(=O)Nc1nc2c(ncn2C2OC(CO)C(O)C2O)c(=O)[nH]1 (stereo unspecified): > 100 µM
- COc1c(OC(C)=O)c(OC(C)=O)cc2c1-c1ccc(SC)c(=O)cc1C(NC(C)=O)CC2 (stereo unspecified): > 100 µM
- Cc1cc(C)c2c(c1)C/C(=C\c1ccccc1C(=O)O)C2=O: > 100 µM
- C=CC1C(OC2OC(CO)C(O)C(O)C2O)OC=C(C(=O)OC)C1CC1CC(=O)CC(CCc2ccc(O)cc2)O1 (stereo unspecified): > 100 µM
- C=C(C(=O)O)[C@@H]1C[C@@H](OC(C)=O)[C@]2(C)CC/C=C(\C)CCC[C@H](C)[C@H](O)[C@@H]1O2: > 100 µM

The recorded TGI for entry CCCOc1ccc2sc(NC(=O)OC)nc2c1 equals > 100 µM

The recorded TGI for entry CNC(=S)N=Nc1c(O)n(CN2CCOCC2)c2ccc([N+](=O)[O-])cc12 equals 54.8 µM

The recorded TGI for entry CN(C)CCNC(=O)c1ccc2nc3c(nc2c1)C(=O)c1ccccc1-3 equals > 100 µM

The recorded TGI for entry CC1(C)CC(=O)C(C=NC(=O)c2ccncc2)=C(O)C1 equals > 100 µM

The recorded TGI for entry O=C(Nc1nncs1)NS(=O)(=O)n1c(=S)sc2ccccc21 equals > 100 µM

The recorded TGI for entry CCn1c(=O)c2c(=O)c3c4c(oc3oc2c2ccccc21)C(=O)c1ccccc1C4=O equals > 100 µM

These measurements were taken from PubChem BioAssay (NCI).
